- Target Under Test: human Cav2.2 (Homo sapiens, UniProt Q00975)
- Sequence (Q00975 whole entry): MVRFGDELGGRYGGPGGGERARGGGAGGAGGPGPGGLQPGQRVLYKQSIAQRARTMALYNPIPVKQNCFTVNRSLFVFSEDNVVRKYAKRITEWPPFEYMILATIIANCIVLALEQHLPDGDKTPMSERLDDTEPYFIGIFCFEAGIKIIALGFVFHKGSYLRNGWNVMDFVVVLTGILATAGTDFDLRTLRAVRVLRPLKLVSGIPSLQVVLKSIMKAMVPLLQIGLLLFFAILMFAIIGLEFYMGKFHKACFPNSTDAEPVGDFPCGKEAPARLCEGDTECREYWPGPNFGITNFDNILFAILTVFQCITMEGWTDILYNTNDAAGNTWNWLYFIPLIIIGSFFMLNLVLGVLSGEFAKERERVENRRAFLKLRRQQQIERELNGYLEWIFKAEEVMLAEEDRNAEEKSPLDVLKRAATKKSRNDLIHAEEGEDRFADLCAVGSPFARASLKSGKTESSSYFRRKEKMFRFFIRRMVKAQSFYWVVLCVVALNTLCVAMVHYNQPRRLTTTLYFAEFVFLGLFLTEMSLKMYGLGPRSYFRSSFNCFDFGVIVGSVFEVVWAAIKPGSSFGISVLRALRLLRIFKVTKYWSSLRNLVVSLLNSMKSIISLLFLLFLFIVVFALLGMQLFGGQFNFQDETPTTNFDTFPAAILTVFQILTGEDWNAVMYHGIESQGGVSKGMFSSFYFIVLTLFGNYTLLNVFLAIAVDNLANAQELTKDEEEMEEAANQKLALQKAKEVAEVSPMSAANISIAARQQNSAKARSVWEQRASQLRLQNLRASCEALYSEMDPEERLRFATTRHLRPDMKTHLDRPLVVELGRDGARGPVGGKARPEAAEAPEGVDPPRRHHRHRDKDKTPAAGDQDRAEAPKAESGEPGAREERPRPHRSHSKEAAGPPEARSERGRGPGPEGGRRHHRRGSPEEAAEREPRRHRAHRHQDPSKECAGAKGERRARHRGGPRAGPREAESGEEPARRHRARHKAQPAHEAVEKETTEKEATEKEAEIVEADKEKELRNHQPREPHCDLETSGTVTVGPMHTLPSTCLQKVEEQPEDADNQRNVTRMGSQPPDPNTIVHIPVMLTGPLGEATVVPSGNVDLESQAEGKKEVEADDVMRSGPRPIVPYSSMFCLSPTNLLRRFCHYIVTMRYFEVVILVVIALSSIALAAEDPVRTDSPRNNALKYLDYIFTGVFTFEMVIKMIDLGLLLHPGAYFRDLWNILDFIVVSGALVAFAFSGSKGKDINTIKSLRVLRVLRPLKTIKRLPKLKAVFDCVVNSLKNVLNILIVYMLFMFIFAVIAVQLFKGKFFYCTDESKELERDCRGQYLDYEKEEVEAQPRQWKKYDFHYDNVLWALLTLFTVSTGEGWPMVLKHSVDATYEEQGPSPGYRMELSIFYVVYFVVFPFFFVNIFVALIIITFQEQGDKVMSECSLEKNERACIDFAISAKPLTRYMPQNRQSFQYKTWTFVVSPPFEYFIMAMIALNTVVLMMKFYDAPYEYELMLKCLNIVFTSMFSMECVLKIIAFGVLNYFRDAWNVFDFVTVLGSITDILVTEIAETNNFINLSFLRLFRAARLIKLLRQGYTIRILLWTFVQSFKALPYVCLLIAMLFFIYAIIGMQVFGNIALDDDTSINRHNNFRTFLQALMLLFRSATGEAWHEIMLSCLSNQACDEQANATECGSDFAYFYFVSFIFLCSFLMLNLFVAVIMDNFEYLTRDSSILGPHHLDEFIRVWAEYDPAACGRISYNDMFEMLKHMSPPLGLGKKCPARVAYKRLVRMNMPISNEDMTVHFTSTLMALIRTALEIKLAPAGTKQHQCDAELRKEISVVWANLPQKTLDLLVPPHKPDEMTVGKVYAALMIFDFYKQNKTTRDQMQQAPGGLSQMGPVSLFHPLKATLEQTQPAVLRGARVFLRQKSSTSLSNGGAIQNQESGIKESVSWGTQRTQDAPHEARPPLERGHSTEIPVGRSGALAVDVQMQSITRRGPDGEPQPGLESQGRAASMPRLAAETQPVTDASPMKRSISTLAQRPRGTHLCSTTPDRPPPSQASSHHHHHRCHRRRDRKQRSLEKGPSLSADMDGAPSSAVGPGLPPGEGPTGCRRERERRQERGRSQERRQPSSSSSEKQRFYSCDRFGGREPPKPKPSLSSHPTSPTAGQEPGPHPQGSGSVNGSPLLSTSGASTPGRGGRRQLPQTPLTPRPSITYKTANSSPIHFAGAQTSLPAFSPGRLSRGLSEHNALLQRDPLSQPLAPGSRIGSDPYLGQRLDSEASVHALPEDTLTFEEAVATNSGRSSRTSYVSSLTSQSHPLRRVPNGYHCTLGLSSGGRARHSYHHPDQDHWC
- Sequence (P54289 25-956 partner limits assumed): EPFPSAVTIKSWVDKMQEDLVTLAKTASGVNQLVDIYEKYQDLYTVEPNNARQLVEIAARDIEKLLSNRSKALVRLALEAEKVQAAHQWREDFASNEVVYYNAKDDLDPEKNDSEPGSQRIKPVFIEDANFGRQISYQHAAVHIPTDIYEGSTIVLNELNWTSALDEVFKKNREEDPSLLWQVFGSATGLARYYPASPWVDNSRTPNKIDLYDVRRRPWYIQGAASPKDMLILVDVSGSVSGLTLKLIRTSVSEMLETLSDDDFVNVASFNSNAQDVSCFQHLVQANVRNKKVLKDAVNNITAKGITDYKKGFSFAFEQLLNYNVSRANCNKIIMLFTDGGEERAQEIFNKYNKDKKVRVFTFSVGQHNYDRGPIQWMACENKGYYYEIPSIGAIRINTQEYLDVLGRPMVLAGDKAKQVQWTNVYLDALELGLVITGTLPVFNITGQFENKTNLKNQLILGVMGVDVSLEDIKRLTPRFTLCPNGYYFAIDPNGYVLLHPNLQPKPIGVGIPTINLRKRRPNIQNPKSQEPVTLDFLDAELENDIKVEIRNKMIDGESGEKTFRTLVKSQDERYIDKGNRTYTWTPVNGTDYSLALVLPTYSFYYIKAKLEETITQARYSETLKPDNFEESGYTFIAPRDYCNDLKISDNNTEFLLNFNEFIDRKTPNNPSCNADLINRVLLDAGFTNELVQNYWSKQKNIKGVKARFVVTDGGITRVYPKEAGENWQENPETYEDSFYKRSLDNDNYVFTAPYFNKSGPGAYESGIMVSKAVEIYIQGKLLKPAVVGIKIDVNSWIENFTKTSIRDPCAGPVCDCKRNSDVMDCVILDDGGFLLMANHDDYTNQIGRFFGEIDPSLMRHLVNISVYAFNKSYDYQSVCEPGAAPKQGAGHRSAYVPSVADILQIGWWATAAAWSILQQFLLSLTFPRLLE
- Sequence (P54289 957-1103 partner limits assumed): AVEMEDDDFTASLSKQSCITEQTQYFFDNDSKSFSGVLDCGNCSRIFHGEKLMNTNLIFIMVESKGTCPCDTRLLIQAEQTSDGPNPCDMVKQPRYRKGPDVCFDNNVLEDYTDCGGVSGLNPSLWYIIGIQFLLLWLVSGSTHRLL
- Sequence (P54284 whole entry partner): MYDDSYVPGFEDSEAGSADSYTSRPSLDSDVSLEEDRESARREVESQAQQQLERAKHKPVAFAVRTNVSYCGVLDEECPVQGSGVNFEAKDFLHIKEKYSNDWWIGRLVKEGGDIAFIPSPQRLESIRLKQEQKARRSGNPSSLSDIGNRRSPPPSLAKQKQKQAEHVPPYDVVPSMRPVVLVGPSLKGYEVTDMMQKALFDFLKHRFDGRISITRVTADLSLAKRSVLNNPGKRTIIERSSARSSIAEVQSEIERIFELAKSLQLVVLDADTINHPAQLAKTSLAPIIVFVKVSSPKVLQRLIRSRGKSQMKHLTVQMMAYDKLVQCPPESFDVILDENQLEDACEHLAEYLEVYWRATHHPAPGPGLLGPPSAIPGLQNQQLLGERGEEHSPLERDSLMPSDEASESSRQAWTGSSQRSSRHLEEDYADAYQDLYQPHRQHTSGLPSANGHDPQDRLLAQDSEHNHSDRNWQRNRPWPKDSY
- Experimental Protocol: Assessment of calcium channel activity using FLIPR (Ca2+ influx in IMR32 cells)
- Assay type: cell-based
pIC50: −log10 of the molar value.
Measured Attribute: pIC50

Molecule	Target Under Test	Result Value
CC(C)C[C@H](NC(=O)OC(C)(C)C)C(=O)N[C@@H]1CC[C@@H]2CN(Cc3cccc(C(F)(F)F)c3)C[C@@H]21 (stereo in doubt) [Example 137]	human Cav2.2 (Homo sapiens, UniProt Q00975)	6.19
CCC[C@H](NC)C(=O)N[C@H]1CC[C@@H]2CN(c3cccc(C(F)(F)F)n3)C[C@@H]21 [Example 588]	human Cav2.2 (Homo sapiens, UniProt Q00975)	5.99
O=C(N[C@H]1CC[C@@H]2CN(c3ccc(F)cc3C(F)(F)F)C[C@@H]21)[C@@H]1C[C@@H](F)CN1 [Example 698]	human Cav2.2 (Homo sapiens, UniProt Q00975)	5.82
